The measurements presented in this section are drawn from paper PMC8122972.

target entity: human tyrosinase (Homo sapiens, UniProt P14679)
Construct: endogenous in cells; host or cells: A375 human melanoma cells (ATCC), induced with L-tyrosine; sonicated pellet, 10,000 x g supernatant
Sequence (P14679 19-529): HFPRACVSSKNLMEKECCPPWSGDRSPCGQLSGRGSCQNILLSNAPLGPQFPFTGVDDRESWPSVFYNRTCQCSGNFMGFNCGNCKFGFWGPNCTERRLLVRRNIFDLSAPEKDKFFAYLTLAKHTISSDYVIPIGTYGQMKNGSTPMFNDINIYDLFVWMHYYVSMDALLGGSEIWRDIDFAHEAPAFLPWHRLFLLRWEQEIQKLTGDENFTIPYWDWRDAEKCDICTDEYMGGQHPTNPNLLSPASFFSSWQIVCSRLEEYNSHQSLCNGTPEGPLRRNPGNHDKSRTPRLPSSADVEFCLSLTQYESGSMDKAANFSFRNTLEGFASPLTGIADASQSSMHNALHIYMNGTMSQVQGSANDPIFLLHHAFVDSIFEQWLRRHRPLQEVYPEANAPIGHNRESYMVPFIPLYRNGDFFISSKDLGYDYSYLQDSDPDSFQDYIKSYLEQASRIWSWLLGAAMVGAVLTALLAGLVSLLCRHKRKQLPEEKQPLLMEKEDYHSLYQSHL
experiment notes: Human tyrosinase inhibition assay (enzyme prepared from A375 human melanoma cells)
Assay type: biochemical
particulars: L-DOPA, 50 µg/mL (b9)
Would you please tag the item YES when its inhibition is 80% or above, and NO when it is below?

1) COc1ccc(CCNC(=O)COC(=O)c2cc(O)cc(O)c2)cc1    NO
2) COc1ccc(CCNC(=O)COC(=O)c2ccc(O)cc2)cc1    NO
3) COc1ccc(CCNC(=O)COC(=O)/C=C/c2ccc(O)cc2)cc1    YES
4) COc1ccc(CCNC(=O)COC(=O)/C=C/c2ccccc2O)cc1    YES

Note: attention shifts to another entry.
Given the entry `COc1ccc(CCNC(=O)COC(=O)c2cccc(O)c2)cc1` , answer whether its inhibition meets or surpasses 80%.
NO

---

This listing pairs compounds with measured log10 of IC50.
target entity: mushroom tyrosinase (Agaricus bisporus)
Construct: purchased Sigma Aldrich (St. Louis, MO, USA)
Sequence (C7FF04 1-392 limits assumed): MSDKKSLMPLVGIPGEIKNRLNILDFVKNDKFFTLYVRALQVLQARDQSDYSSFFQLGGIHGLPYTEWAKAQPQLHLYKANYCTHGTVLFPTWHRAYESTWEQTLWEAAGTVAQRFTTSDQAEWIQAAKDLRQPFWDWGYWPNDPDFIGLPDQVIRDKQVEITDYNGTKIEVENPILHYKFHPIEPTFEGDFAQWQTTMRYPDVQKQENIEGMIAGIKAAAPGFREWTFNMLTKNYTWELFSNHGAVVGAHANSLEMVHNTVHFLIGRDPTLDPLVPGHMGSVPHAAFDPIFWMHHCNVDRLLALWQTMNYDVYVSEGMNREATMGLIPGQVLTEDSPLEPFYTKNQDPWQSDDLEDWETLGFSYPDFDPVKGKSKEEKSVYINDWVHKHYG
experiment notes: In vitro mushroom tyrosinase inhibition assay (L-DOPA, dopachrome at 475 nm)
Type: biochemical
particulars: substrate L-DOPA, pH 6.8, 25 °C; read-out: Mushroom Tyrosinase IC50 ± SEM
Values reflect log10 of reported IC50 (µM).

1. COc1ccc(CCNC(=O)COC(=O)/C=C/c2ccc(O)cc2)cc1 [Ph8]    -0.03
2. COc1ccc(CCNC(=O)COC(=O)/C=C/c2ccccc2O)cc1 [Ph7]    -0.98
3. COc1ccc(CCNC(=O)COC(=O)c2ccc(O)cc2)cc1 [Ph2]    -0.33
4. COc1ccc(CCNC(=O)COC(=O)c2ccc(O)c(O)c2)cc1 [Ph4]    -0.48
5. COc1ccc(CCNC(=O)COC(=O)c2cccc(O)c2)cc1 [Ph1]    0.61
6. COc1ccc(CCNC(=O)COC(=O)/C=C/c2ccc(Cl)cc2)cc1 [Ph10]    -0.34
7. COc1ccc(CCNC(=O)COC(=O)c2ccc(O)cc2O)cc1 [Ph3]    -0.08

Here is the next item to consider.
// log10 of IC50 lookup, key: COc1ccc(CCNC(=O)COC(=O)c2cc(O)cc(O)c2)cc1 [Ph5]
-0.64

---

target entity: human tyrosinase (Homo sapiens)
Construct: endogenous in cells; host or cells: A375 human melanoma cells (ATCC), induced with L-tyrosine; sonicated pellet, 10,000 x g supernatant
experiment notes: Human tyrosinase inhibition assay (enzyme prepared from A375 human melanoma cells)
Type: biochemical
particulars: L-DOPA, 50 µg/mL (b9)
Below, each entry is listed alongside its reported inhibition.
Kindly provide the numeric value in % only, without the unit symbol.

1) COc1ccc(CCNC(=O)COC(=O)c2ccc(O)cc2O)cc1 [Ph3]    79.7
2) COc1ccc(CCNC(=O)COC(=O)/C=C/c2ccc(Cl)cc2)cc1 [Ph10]    79.2

Tell me the measured inhibition of COc1ccc(CCNC(=O)COC(=O)c2ccc(O)c(O)c2)cc1 [Ph4] , please.
82.2
